Listing of recorded growth by entry.
# System: HCT-116 colon
# ASSAY_COMMENT: NCI-60 one-dose screen, 48 h (100 = growth as untreated, 0 = no growth, -100 = all killed)
# RUN_CONDITIONS: 10 µM unless noted
Compounds without any hit were thinned out: in the full panel of roughly 83,000, 20% have a hit. Calls of active or inactive are those of the source. How the source made its calls: active means growth percent below 10; inactive means the rest.

Worked examples follow.
COMPOUND	growth
COc1ccc(C2c3sc4c(C)cccc4c3Oc3nc(CC(=O)Nc4ccccc4)[nH]c(=O)c32)cc1 (stereo not given)	73.6% (inactive)
CC1=NC2=NN3C(=NN2C(c2ccccc2)=C1)N=NC(c1ccc(Br)cc1)=C3c1ccc(Br)cc1	117% (inactive)
COc1cc(OC)cc(C(=O)Nc2sc3c(c2C(N)=O)CCC(=O)C3)c1	7.89% (active)

[Q] Which growth value belongs to CCN(CC)c1ccc2c(c1)Oc1nc(N)c(C#N)c(N)c1C2Sc1ccc(C)cc1 (stereo not given) ?
[A] -80.2% (active)

[Q] Can you check O=C(CN1CCN(c2cc(=O)n(-c3ccccc3)c3ccccc23)CC1)Nc1ccc(F)cc1 next?
[A] 58.7% (inactive)

###

# System: OVCAR-4 ovarian
# ASSAY_COMMENT: NCI-60 one-dose screen, 48 h (100 = growth as untreated, 0 = no growth, -100 = all killed)
# RUN_CONDITIONS: 10 µM unless noted
This is part of a sample that, as a whole, favours compounds with a hit. Of some 83,000 tested, about 20% had one in any assay.
Please note: growth exactly at 70% is 0.0. Only values below 70% get 1.0.

Worked cases, answers included:
C=C(C=O)[C@@H]1CC[C@]2(C)[C@H](CC=C3[C@H]4[C@@H](C)[C@H](C)CC[C@]4(C(=O)OC)CC[C@]32C)[C@@]1(C)CCC#N 1.0
CS(=O)(=O)c1ccc(-n2cc(/C=N/O)c(-c3ccccc3)n2)cc1 0.0
N#Cc1c(-c2cccs2)cc(-c2cnccn2)nc1SCC(=O)Nc1ccc(Br)cc1 0.0
CN1CCN(Cc2ccc(NC(=O)c3cncc(C#Cc4cnn5cccnc45)c3)cc2C(F)(F)F)CC1 1.0
O=C(CCn1c[n+](CC(=O)c2ccc(F)cc2)c2ccccc21)Nc1cccc2cccnc12 1.0

[Q] Lab note: growth threshold 70%. Does this compound come in strictly under it? C#Cc1ccc(C(=O)NCc2ccc(/C=C/C(=O)c3nccn3C)cc2)cc1
[A] 1.0

[Q] Can you check Cc1cc(S(=O)(=O)N(C)C)cc(NCC(=O)NC(=O)NCC(C)C)c1C next?
[A] 0.0

[Q] Can you check COc1ccc([C@H]2[C@H](O)C(=O)N2c2cc(OC)c(OC)c(OC)c2)cc1F next?
[A] 1.0

[Q] Can you check COc1ccccc1-n1cc(C#N)c(N)c1C(=O)c1ccc(C)cc1 next?
[A] 0.0

###

# Tested on: UO-31 renal
# ASSAY_COMMENT: NCI-60 one-dose screen, 48 h (100 = growth as untreated, 0 = no growth, -100 = all killed)
# RUN_CONDITIONS: 10 µM unless noted
The panel holds about 83,000 compounds, 20% with a hit somewhere; the sample as a whole holds those more often.
QUANTITY: growth (%)
Numeric answer only, unit % assumed.

O=C(NNc1nc2cc(F)ccc2n2c(CO)ccc12)c1cnccn1 8.71
O=C(Nc1ccc(Br)cc1)Nc1nc2ccc([N+](=O)[O-])cc2s1 5.94

[Q] Which growth value belongs to CCCCCc1ccc(S(=O)(=O)Nc2cccc(-c3csc(NCCN4CCN(C)CC4)n3)c2)cc1 ?
[A] 73.4

[Q] Can you check C#CCC#CCN1CCC[C@H]1C(=O)NCC(=O)OC next?
[A] 98.5

[Q] Can you check C#Cc1nc(/C=C/C(=O)c2nccn2C)cs1 next?
[A] -80.7
